- System: TNF-α secretion, peripheral blood mononuclear cells (PBMCs)
- Protocol Notes: Suppression of TNF-α secretion in LPS-treated PBMCs (ELISA)
- Format: cell-based
- Measurement Parameters: PBMC, 0.1 μM, 100 ng/ml LPS, 24 hours, read-out: TNF-α, % inhibition degree
Readout Type: inhibition at 0.1 µM (%)
Use % as the unit, but write only the number.

Ask | Under TNF-α secretion, peripheral blood mononuclear cells (PBMCs): report inhibition at 0.1 µM of `Cn1cc(-c2ccc3[nH]c4ncnc(Nc5ccc(N6CCNCC6)cc5)c4c3c2)cn1` .
Reply | 17

Ask | Write down measured inhibition at 0.1 µM (TNF-α secretion, peripheral blood mononuclear cells (PBMCs)) for this molecule. `COc1ccc(-c2ccc3[nH]c4ncnc(N[C@H]5CC[C@H](N6CCOCC6)CC5)c4c3c2)cn1`
Reply | 16

Ask | State inhibition at 0.1 µM (TNF-α secretion, peripheral blood mononuclear cells (PBMCs)) of COc1cncc(-c2ccc3[nH]c4nccc(N[C@H]5CC[C@H](N6CCOCC6)CC5)c4c3c2)c1 [Compound 17b] .
Reply | 12

Ask | Enter inhibition at 0.1 µM (test system TNF-α secretion, peripheral blood mononuclear cells (PBMCs)) for `Oc1cncc(-c2ccc3[nH]c4ncnc(N[C@H]5CC[C@H](N6CCOCC6)CC5)c4c3c2)c1`
Reply | 12

* * *

- System: ISG promoter, THP1-Lucia™ ISG cell line
- Protocol Notes: ISG promoter inhibition, THP1-Lucia ISG cell line
- Assay type: cell-based
- Measurement Parameters: 0.1 μM, 1 μg/ml Poly(dA:dT)/LyoVec, 24 hours, read-out: ISG, % inhibition degree
Bucketed by reported inhibition at 0.1 µM, buckets being low bin = under 9%, mid bin = from 9% up to 20%, high bin = 20% and over

Ask | Which inhibition at 0.1 µM band matches Cn1cc(-c2ccc3[nH]c4ncnc(N[C@H]5CC[C@H](N(C)C)CC5)c4c3c2)cn1 [Compound 6abb] ?
Reply | high bin

Ask | State the band of c1cc(-c2ccc3c(c2)[nH]c2ncnc(N[C@H]4CC[C@H](N5CCOCC5)CC4)c23)ccn1 [Compound 6caa]
Reply | low bin

Ask | Bin this entry: Cn1cc(-c2ccc3[nH]c4ncnc(N[C@H]5CC[C@H](N6CCN(S(C)(=O)=O)CC6)CC5)c4c3c2)cn1 [Compound 6aca]
Reply | high bin

Ask | Given Fc1cc(F)cc(-c2ccc3[nH]c4ncnc(N[C@H]5CC[C@H](N6CCOCC6)CC5)c4c3c2)c1 [Compound 6aal] , name the class its inhibition at 0.1 µM places it in.
Reply | low bin

Ask | Record Cn1cc(-c2ccc3[nH]c4nccc(N[C@H]5CC[C@H](N6CCOCC6)CC5)c4c3c2)cn1 [Compound 17a] — which class?
Reply | mid bin

Ask | Looking at Fc1ccc(-c2ccc3[nH]c4ncnc(N[C@H]5CC[C@H](N6CCOCC6)CC5)c4c3c2)cc1 [Compound 6aan] , which class would you pick?
Reply | low bin

Ask | Category of COc1cncc(-c2ccc3[nH]c4ncnc(N[C@H]5CC[C@H](N6CCOCC6)CC5)c4c3c2)c1 [Compound 6aad] , please.
Reply | high bin

Ask | Hi there! Could you help me figure out the category for c1cc(-c2ccc3[nH]c4ncnc(N[C@H]5CC[C@H](N6CCOCC6)CC5)c4c3c2)ccn1 [Compound 6aab] please?
Reply | mid bin

Ask | Exam item: assign N#Cc1cccc(-c2ccc3[nH]c4ncnc(N[C@H]5CC[C@H](N6CCOCC6)CC5)c4c3c2)c1 [Compound 6aak] to the correct category.
Reply | low bin

Ask | Exam item: assign COc1cccc(-c2ccc3[nH]c4ncnc(N[C@H]5CC[C@H](N6CCOCC6)CC5)c4c3c2)c1 [Compound 6aaj] to the correct category.
Reply | mid bin

Ask | Sort into band: c1cc(-c2ccc3[nH]c4ncnc(Nc5ccc(N6CCNCC6)cc5)c4c3c2)ccn1 [Compound 6agba]
Reply | low bin

Ask | Place this compound in its band: Oc1cncc(-c2ccc3[nH]c4ncnc(N[C@H]5CC[C@H](N6CCOCC6)CC5)c4c3c2)c1 [Compound 6aae]
Reply | low bin

Ask | Class for CN(C)[C@H]1CC[C@H](Nc2ncnc3[nH]c4ccc(-c5cncc(F)c5)cc4c23)CC1 [Compound 6aba] ?
Reply | high bin

Ask | Categorize the following entry: CCOC(=O)c1ccc2[nH]c3ncnc(N[C@H]4CC[C@H](N5CCOCC5)CC4)c3c2c1 [Compound 5ba]
Reply | high bin

* * *

- System: TNF-α secretion, peripheral blood mononuclear cells (PBMCs)
- Protocol Notes: Suppression of TNF-α secretion in LPS-treated PBMCs (ELISA)
- Type: cell-based
- Measurement Parameters: PBMC, 0.1 μM, 100 ng/ml LPS, 24 hours, read-out: TNF-α, % inhibition degree
Readout Type: inhibition at 0.1 µM (%)
The reply should be a number in %, with the unit left off.

Ask | Return value of inhibition at 0.1 µM for input `COC(=O)c1ccc2c(c1)[nH]c1ncnc(N[C@H]3CC[C@H](N4CCOCC4)CC3)c12` , no commentary.
Reply | 10

Ask | Check the records and state inhibition at 0.1 µM for COc1cncc(-c2ccc3[nH]c4nccc(N[C@H]5CC[C@H](N6CCN(S(C)(=O)=O)CC6)CC5)c4c3c2)c1 [Compound 17c]
Reply | 7

Ask | Give recorded inhibition at 0.1 µM. `COc1cncc(-c2ccc3[nH]c4ncnc(N[C@H]5CC[C@H](N6CCOCC6)CC5)c4c3c2)c1`
Reply | 42

Ask | Given the compound `CCOC(=O)c1ccc2[nH]c3ncnc(N[C@H]4CC[C@H](N(C)C)CC4)c3c2c1` , write its reported inhibition at 0.1 µM.
Reply | 7.3

* * *

Assignment: determine reported inhibition at 1 µM for the given compounds.
- Study Target: IRAK4 enzyme (Homo sapiens, UniProt Q9NWZ3)
- Sequence (Q9NWZ3 whole entry): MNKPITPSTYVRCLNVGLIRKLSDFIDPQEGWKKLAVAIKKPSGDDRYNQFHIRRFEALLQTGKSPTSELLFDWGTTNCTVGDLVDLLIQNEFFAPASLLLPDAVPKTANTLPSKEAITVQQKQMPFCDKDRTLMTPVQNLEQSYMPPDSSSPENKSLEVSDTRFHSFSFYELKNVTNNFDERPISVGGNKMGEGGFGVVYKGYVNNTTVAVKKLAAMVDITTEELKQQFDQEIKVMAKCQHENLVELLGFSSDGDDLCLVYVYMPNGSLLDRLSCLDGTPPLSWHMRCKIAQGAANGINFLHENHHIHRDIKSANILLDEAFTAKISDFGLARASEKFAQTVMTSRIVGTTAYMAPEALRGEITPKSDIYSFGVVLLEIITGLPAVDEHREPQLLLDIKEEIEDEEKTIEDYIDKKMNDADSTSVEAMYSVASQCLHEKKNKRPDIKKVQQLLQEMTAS
- Protocol Notes: IRAK4 enzyme inhibition degree (bead-based kinase assay, peptide substrate BMKC-2, 100 μM ATP)
- Format: biochemical
- Measurement Parameters: compound 1 μM
Numeric answer only, unit % assumed.

Ask | Read the entry `Cn1cc(-c2ccc3[nH]c4ncnc(Nc5ccc(N6CCNCC6)cc5)c4c3c2)cn1` and write its reported inhibition at 1 µM.
Reply | 36

Ask | Tell us which inhibition at 1 µM value is on record for `Fc1cc(F)cc(-c2ccc3[nH]c4ncnc(N[C@H]5CC[C@H](N6CCOCC6)CC5)c4c3c2)c1`
Reply | 99

Ask | Look up inhibition at 1 µM of `Cn1cc(-c2ccc3[nH]c4ncnc(N[C@H]5CC[C@H](N6CCN(S(C)(=O)=O)CC6)CC5)c4c3c2)cn1` and report it.
Reply | 100

Ask | Output measured inhibition at 1 µM for this item: COc1cncc(-c2ccc3[nH]c4nccc(N[C@H]5CC[C@H](N6CCOCC6)CC5)c4c3c2)c1 [Compound 17b]
Reply | 100

* * *

- System: NF-κB promoter, THP1-Lucia™ NF-κB cell line
- Protocol Notes: NF-κB promoter inhibition, THP1-Lucia NF-κB cell line
- Type: cell-based
- Measurement Parameters: 1 μM; 100 ng/ml LPS, 24 hours; read-out: NF-κB, % inhibition degree
Give inhibition at 1 µM for every item shown.
Entry rule: numbers only, all in %.

Ask | Item `N#Cc1cccc(-c2ccc3[nH]c4ncnc(N[C@H]5CC[C@H](N6CCOCC6)CC5)c4c3c2)c1` : provide inhibition at 1 µM
Reply | 37

Ask | Provide inhibition at 1 µM value for the following molecule: `Cn1cc(-c2ccc3[nH]c4ncnc(N[C@H]5CC[C@H](N(C)C)CC5)c4c3c2)cn1`
Reply | 83

Ask | Provide inhibition at 1 µM value for the following molecule: `c1cc(-c2ccc3[nH]c4ncnc(Nc5ccc(N6CCNCC6)cc5)c4c3c2)ccn1`
Reply | 6

Ask | Identify the reported inhibition at 1 µM for the following entry. `COc1ccc(-c2ccc3[nH]c4ncnc(N[C@H]5CC[C@H](N6CCOCC6)CC5)c4c3c2)cn1`
Reply | 63

Ask | Provide inhibition at 1 µM value for the following molecule: `COC(=O)c1ccc2c(c1)[nH]c1ncnc(N[C@H]3CC[C@H](N4CCOCC4)CC3)c12`
Reply | 30

Ask | Give me measured inhibition at 1 µM, please, for this molecule: `Fc1cncc(-c2ccc3[nH]c4ncnc(N[C@H]5CC[C@H](N6CCOCC6)CC5)c4c3c2)c1`
Reply | 82

Ask | Answer with the recorded inhibition at 1 µM of COc1cncc(-c2ccc3[nH]c4nccc(N[C@H]5CC[C@H](N6CCN(S(C)(=O)=O)CC6)CC5)c4c3c2)c1 [Compound 17c] only.
Reply | 53

Ask | Quickly give me recorded inhibition at 1 µM for COc1cncc(-c2ccc3[nH]c4nccc(N[C@H]5CC[C@H](N6CCOCC6)CC5)c4c3c2)c1 [Compound 17b]
Reply | 62

Ask | Identify measured inhibition at 1 µM corresponding to `O=[N+]([O-])c1cccc(-c2ccc3[nH]c4ncnc(N[C@H]5CC[C@H](N6CCOCC6)CC5)c4c3c2)c1`
Reply | 36

Ask | # return recorded inhibition at 1 µM for entry `CN(C)CCOc1cncc(-c2ccc3[nH]c4ncnc(N[C@H]5CC[C@H](N6CCOCC6)CC5)c4c3c2)c1`
Reply | 37

Ask | Find the measured inhibition at 1 µM of `CN(C)[C@H]1CC[C@H](Nc2ncnc3[nH]c4ccc(-c5cncc(F)c5)cc4c23)CC1` and report it.
Reply | 87

Ask | Given `CCOC(=O)c1ccc2[nH]c3ncnc(N[C@H]4CC[C@H](N(C)C)CC4)c3c2c1` , respond with its inhibition at 1 µM.
Reply | 92

Ask | Indicate its recorded inhibition at 1 µM; the molecule in question is `c1cc(-c2ccc3c(c2)[nH]c2ncnc(N[C@H]4CC[C@H](N5CCOCC5)CC4)c23)ccn1`
Reply | 10

Ask | Please give the documented inhibition at 1 µM of Cn1cc(-c2ccc3[nH]c4nccc(N[C@H]5CC[C@H](N6CCOCC6)CC5)c4c3c2)cn1 [Compound 17a]
Reply | 78

Ask | Answer with the recorded inhibition at 1 µM of `Cn1cc(-c2ccc3[nH]c4ncnc(N[C@H]5CC[C@H](N6CCOCC6)CC5)c4c3c2)cn1` only.
Reply | 71

The origin of these recorded values is patent US12378250B2.
